Test system: SUM149PT spheroids with HUVEC/MSC, viability
assay procedure: Anticancer human tumor SUM149PT cell line growth inhibition [GQUAD];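 note: spheroids exposed to drugs for seven days before readout; percent viability relative to DMSO vehicle control taken as 100%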
details: second compound 0.1 µM; first compound 3.16 µM; stronger effect = lower value

| molecule | viability, T/C / % |
| --- | --- |
| CC(C)(O)C1CCC(Nc2ccc3ncc(-c4cccc(C(F)(F)F)c4)n3n2)CC1 (stereo not drawn) + CN(C)c1ccc(Nc2c3ccc(NC(=O)CCN4CCCC4)cc3nc3cc(NC(=O)CCN4CCCC4)ccc23)cc1 | 49.1 |
| CC1COCCN1c1cc(C2(O)CC3CCC(C2)O3)c2cnn(-c3ccn[nH]3)c2n1 (stereo not drawn) + CN(C)c1ccc(Nc2c3ccc(NC(=O)CCN4CCCC4)cc3nc3cc(NC(=O)CCN4CCCC4)ccc23)cc1 | 27.5 |
| Nc1ccn(C2OC(CO)C(O)C2(F)F)c(=O)n1 (stereo not drawn) + Cc1cnc(CNC(=O)c2c(=O)c3ccc(N4CCCN(C)CC4)nc3n3c2sc2ccccc23)cn1 | 16.1 |
